# methodSummary: Toxicokinetics, 14-day intranasal study in rats (Study 700041)
# Format: in vivo
# experimentalSetup: male, Sprague Dawley, rat, plasma, inhaled or intranasal, 75 mg/kg/day, Day 1, Male, read-out: AUCINF_obs
quantity: AUC(0-inf) (ng·h/mL)
Numbers only, in ng·h/mL.

## Task Tell me measured AUC(0-inf) for COc1ccc2[nH]cc(CCN(C)C)c2c1 please.
## Result 1040

====

# assayedTarget: hERG potassium channel current (IKr) (Homo sapiens, UniProt Q12809)
# Sequence (Q12809 whole entry): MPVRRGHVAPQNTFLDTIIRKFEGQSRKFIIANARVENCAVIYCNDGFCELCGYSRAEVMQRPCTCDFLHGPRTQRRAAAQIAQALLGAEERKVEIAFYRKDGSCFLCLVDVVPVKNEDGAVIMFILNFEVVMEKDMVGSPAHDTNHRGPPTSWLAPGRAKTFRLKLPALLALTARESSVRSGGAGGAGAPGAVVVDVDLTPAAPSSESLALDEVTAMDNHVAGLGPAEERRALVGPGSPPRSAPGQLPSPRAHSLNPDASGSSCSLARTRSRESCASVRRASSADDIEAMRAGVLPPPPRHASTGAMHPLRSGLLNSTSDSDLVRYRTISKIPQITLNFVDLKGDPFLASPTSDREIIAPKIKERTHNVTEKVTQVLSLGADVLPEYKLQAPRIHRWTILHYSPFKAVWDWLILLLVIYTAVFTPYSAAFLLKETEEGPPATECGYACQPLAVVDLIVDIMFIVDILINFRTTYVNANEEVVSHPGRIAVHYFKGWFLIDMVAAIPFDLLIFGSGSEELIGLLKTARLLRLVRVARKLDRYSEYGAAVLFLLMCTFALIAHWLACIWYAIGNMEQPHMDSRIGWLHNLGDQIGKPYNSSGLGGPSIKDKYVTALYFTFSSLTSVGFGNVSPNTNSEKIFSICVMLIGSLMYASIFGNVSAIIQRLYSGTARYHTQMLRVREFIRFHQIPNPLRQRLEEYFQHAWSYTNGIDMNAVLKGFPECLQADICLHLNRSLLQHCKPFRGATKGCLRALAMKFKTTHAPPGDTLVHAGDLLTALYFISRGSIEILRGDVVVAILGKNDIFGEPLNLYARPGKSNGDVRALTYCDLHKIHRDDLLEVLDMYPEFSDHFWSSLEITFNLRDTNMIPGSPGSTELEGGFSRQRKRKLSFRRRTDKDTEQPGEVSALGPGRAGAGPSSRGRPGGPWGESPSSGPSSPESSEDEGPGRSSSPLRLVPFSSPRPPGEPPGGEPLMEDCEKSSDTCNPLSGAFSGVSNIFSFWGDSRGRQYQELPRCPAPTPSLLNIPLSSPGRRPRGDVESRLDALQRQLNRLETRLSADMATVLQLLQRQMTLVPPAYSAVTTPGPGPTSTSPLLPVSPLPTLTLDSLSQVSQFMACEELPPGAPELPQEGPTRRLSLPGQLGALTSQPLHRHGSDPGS
# methodSummary: in vitro
# experimentalSetup: human
quantity: inhibition at 10 µM
Give the number first and the unit second.

## Task Please tell me the measured inhibition at 10 µM for COc1ccc2[nH]cc(CCN(C)C)c2c1 ; system: hERG potassium channel current (IKr) (Homo sapiens, UniProt Q12809).
## Result 52.7%
